# ASSAY_NOTES: TIMS collisional cross section (CCS, N2) of the lipid ion; higher = larger ion cross section
# CONDITIONS: sample type: plasma; ionization mode: positive; one isomer drawn
List of TIMS collisional cross section values.

COMPOUND	UOM	TIMS collisional cross section
CCCCCCCC/C=C\CCCCCCCC(=O)OC[C@@H](COC(=O)CCCCCCCCCCCCCCCCC)OC(=O)CCCCCCCCCCCCCCCCC [TG 18:0_18:0_18:1] (ion (formula + adduct): [C57H108O6+NH4] 1+)	Å²	330.6
CC/C=C/C=C/C=C/C=C/CCCCCCCC(=O)OC[C@@H](O)COP(=O)([O-])OCC[N+](C)(C)C [LPC 18:4] (ion (formula + adduct): [C26H46NO7P+H] 1+)	Å²	220.8
CCCCCC/C=C\CCCCCCCC(=O)O[C@H](COC(=O)CCCCCCCCCCCCCCC)COP(=O)([O-])OCC[N+](C)(C)C [PC 16:0@_16:1] (ion (formula + adduct): [C40H78NO8P+H] 1+)	Å²	282.2
CCCCCCCC/C=C\CCCCCCCCCCCCCC(=O)OC[C@@H](O)COP(=O)([O-])OCC[N+](C)(C)C [LPC 24:1] (ion (formula + adduct): [C32H64NO7P+H] 1+)	Å²	253.3
CCCCCCCCCC/C=C\CCCCCCCCCC(=O)OC[C@@H](O)COP(=O)([O-])OCC[N+](C)(C)C [LPC 22:1] (ion (formula + adduct): [C30H60NO7P+H] 1+)	Å²	247.6
